Tested on: NCI-H522
Type: cell-based, human
Details: NCI-H522 (Non-Small Cell Lung Cancer), 48 h; read-out: LC50 (the source's name)

{"columns": ["molecule_smiles", "CC50"],
 "data": [
  ["N=c1[nH]c(=O)c2ncn([C@@H]3O[C@H](CO)[C@@H](O)[C@H]3O)c2c(=O)[nH]1", "> 100 µM"]
]}

====

List of CC50 values.
Test system: MDA-MB- 231/ATCC
Experiment: SRB anti-cancer assay, Breast Cancer
Format: cell-based, human
Details: MDA-MB- 231/ATCC (Breast Cancer), 48 h; read-out: LC50 (the source's name)
experimental_endpoint: CC50

{"columns": ["molecule_smiles", "observed_measurement"],
 "data": [
  ["N=c1nc(N)c2ncn([C@@H]3O[C@H](CO)[C@@H](O)[C@H]3O)c2c(N)n1", "> 100 µM"],
  ["N=c1[nH]c(=O)c2ncn([C@@H]3O[C@H](CO)[C@@H](O)[C@H]3O)c2c(=O)[nH]1", "> 100 µM"],
  ["N=c1nc(N)c2ncn([C@@H]3O[C@H](COC(=O)c4ccccc4)[C@@H](OC(=O)c4ccccc4)[C@H]3OC(=O)c3ccccc3)c2c(N)n1", "61.6 µM"]
]}

====

# CC50 values compiled below
Test system: SW-620
Test: SRB anti-cancer assay, Colon Cancer
Format: cell-based, human
Details: SW-620 (Colon Cancer), 48 h; read-out: LC50 (the source's name)

{"columns": ["molecule_smiles", "CC50"],
 "data": [
  ["N=c1[nH]c(=O)c2ncn([C@@H]3O[C@H](CO)[C@@H](O)[C@H]3O)c2c(=O)[nH]1", "> 100 µM"],
  ["N=c1nc(N)c2ncn([C@@H]3O[C@H](COC(=O)c4ccccc4)[C@@H](OC(=O)c4ccccc4)[C@H]3OC(=O)c3ccccc3)c2c(N)n1", "> 100 µM"],
  ["N=c1nc(N)c2ncn([C@@H]3O[C@H](CO)[C@@H](O)[C@H]3O)c2c(N)n1", "> 100 µM"]
]}

====

Tested on: U251
Assay: SRB anti-cancer assay, CNS Cancer
Assay type: cell-based, human
Conditions: 48 h, read-out: LC50 (the source's name)
// reported CC50 per item

{"columns": ["compound", "CC50"],
 "data": [
  ["N=c1[nH]c(=O)c2ncn([C@@H]3O[C@H](CO)[C@@H](O)[C@H]3O)c2c(=O)[nH]1 [Compound 14-1]", "> 100 µM"],
  ["N=c1nc(N)c2ncn([C@@H]3O[C@H](CO)[C@@H](O)[C@H]3O)c2c(N)n1 [Compound 14-2]", "> 100 µM"]
]}

====

Test: Cell proliferation assay, rapidly growing HFF cells
Assay type: cell-based
Conditions: human, rapidly growing human foreskin fibroblast (HFF) cells, rapidly growing HFF cells, read-out: Cytotoxicity (IC50), HFF Cells

{"columns": ["molecule", "prefix_operator", "IC50 at 72 h, µg/mL"],
 "data": [
  ["Nc1nc2c(ncn2COCCO)c(=O)[nH]1 [Aciclovir, reference compound]", ">", 100],
  ["O=C1NCC(=O)N(Cc2ccccc2)c2c1nc(Br)n2Cc1ccccc1", ">", 100],
  ["O=C1c2nc(Br)n(Cc3ccccc3)c2N(Cc2ccccc2)C(=O)CN1Cc1ccccc1", "=", 56.5],
  ["O=C1c2ncn(Cc3ccccc3)c2N(Cc2ccccc2)C(=O)CN1Cc1ccccc1", ">", 100],
  ["Nc1nc(O)c2ncn(COC(CO)CO)c2n1 [Ganciclovir, reference compound]", "=", 40]
]}
